The origin of these recorded values is the supplement of paper PMC11061612.

test system: A673 (Ewing's Sarcoma); test: combination Emax (second highest fraction inhibited in the dose matrix, 72 h); higher = more inhibition; extreme values may be limits of the assay
This listing pairs compounds with measured combination Emax.
Field format: numeric only.

Reference set, count: 6
[[record]]
compound = "O=C(c1cc(Cc2n[nH]c(=O)c3ccccc23)ccc1F)N1CCN(C(=O)C2CC2)CC1 [Olaparib] + Cc1c2c(nn1C)CSCc1cc(n(C)n1)CSc1cc(c3ccccc3c1)OCCCc1c(C(=O)O)n(C)c3c-2c(Cl)ccc13 [AZD5991] (first compound max 10 µM, 7x7, partner max 1 µM)"
target = "A673 (Ewing's Sarcoma)"
quantity_name = "combination Emax"
result_value = 0.446

[[record]]
compound = "COc1nnc2ccc(N3CCC(c4ccc(OCCN5CCN(C)C(=O)[C@H]5C)cc4)CC3)nn12 [AZD5153] + C=CCn1c(=O)c2cnc(Nc3ccc(N4CCN(C)CC4)cc3)nc2n1-c1cccc(C(C)(C)O)n1 [AZD1775] (first compound max 1 µM, partner max 1 µM)"
target = "A673 (Ewing's Sarcoma)"
quantity_name = "combination Emax"
result_value = 0.602

[[record]]
compound = "Cc1c2c(nn1C)CSCc1cc(n(C)n1)CSc1cc(c3ccccc3c1)OCCCc1c(C(=O)O)n(C)c3c-2c(Cl)ccc13 [AZD5991] + C[C@@H](Nc1cc(F)cc(F)c1)c1cc(C(=O)N(C)C)cc2c(=O)cc(N3CCOCC3)oc12 [AZD8186] (first compound max 1 µM, 7x7, partner max 3 µM)"
target = "A673 (Ewing's Sarcoma)"
quantity_name = "combination Emax"
result_value = 0.557

[[record]]
compound = "CN(CCO)CC[C@H](CSc1ccccc1)Nc1ccc(S(=O)(=O)NC(=O)c2ccc(N3CCC([C@@H](O)c4ccccc4-c4ccc(Cl)cc4)CC3)cc2)cc1S(=O)(=O)C(F)(F)F [AZD4320] + C1CN(CCC1(C(=O)N[C@@H](CCO)C2=CC=C(C=C2)Cl)N)C3=NC=NC4=C3C=CN4 [Capivasertib] (first compound max 1 µM, 7x7, partner max 3 µM)"
target = "A673 (Ewing's Sarcoma)"
quantity_name = "combination Emax"
result_value = 0.905

[[record]]
compound = "CC1(C)CCC(CN2CCN(c3ccc(C(=O)NS(=O)(=O)c4ccc(NCC5CCOCC5)c([N+](=O)[O-])c4)c(Oc4cnc5[nH]ccc5c4)c3)CC2)=C(c2ccc(Cl)cc2)C1 [Venetoclax] + COc1cc(Nc2ncc3c(n2)-c2ccc(Cl)cc2C(c2c(F)cccc2OC)=NC3)ccc1C(=O)O [Alisertib] (first compound max 1 µM, 7x7, partner max 10 µM)"
target = "A673 (Ewing's Sarcoma)"
quantity_name = "combination Emax"
result_value = 0.835

[[record]]
compound = "Cc1nc(-c2cn3c(n2)-c2ccc(-c4cnn(C(C)(C)C(N)=O)c4)cc2OCC3)n(C(C)C)n1 [Taselisib] + O=C(Nc1ccc2[nH]nc(-c3ccncc3)c2c1)[C@@H]1CCN(CC(=O)N2CCN(c3ccc(-c4ncccn4)cc3)CC2)C1 [SCH772984] (first compound max 10 µM, 7x7, partner max 5 µM)"
target = "A673 (Ewing's Sarcoma)"
quantity_name = "combination Emax"
result_value = 0.705


Asked: Reported combination Emax, compound COc1cccc(OCCCN)c1-c1cc(Nc2cnc(C#N)cn2)n[nH]1 [Prexasertib] + CCc1c2c(nc3ccc(O)cc13)-c1cc3c(c(=O)n1C2)COC(=O)[C@]3(O)CC [SN-38] (first compound max 1 µM, 7x7, partner max 0.3 µM) : ____
Given back: 0.998

Asked: Continue with C[C@@H](Oc1cc(-c2cnn(C3CCNCC3)c2)cnc1N)c1c(Cl)ccc(F)c1Cl [Crizotinib] + Cn1cnc2c(F)c(Nc3ccc(Br)cc3Cl)c(C(=O)NOCCO)cc21 [Selumetinib] (first compound max 10 µM, 7x7, partner max 10 µM)
Given back: 0.742

Asked: Same question, Cc1cc2ncnn2cc1Nc1ncc2c(n1)n(C1CCOCC1)c(=O)n2C [AZD7648] + C[C@@H]1COCCN1C2=NC(=NC(=C2)C3(CC3)[S@](=N)(=O)C)C4=C5C=CNC5=NC=C4 [AZD6738] (first compound max 10 µM, 7x7, partner max 10 µM) this time
Given back: 0.809

Asked: Request: COc1nnc2ccc(N3CCC(c4ccc(OCCN5CCN(C)C(=O)[C@H]5C)cc4)CC3)nn12 [AZD5153] + CC1(C)CCC(CN2CCN(c3ccc(C(=O)NS(=O)(=O)c4ccc(NCC5CCOCC5)c([N+](=O)[O-])c4)c(Oc4cnc5[nH]ccc5c4)c3)CC2)=C(c2ccc(Cl)cc2)C1 [Venetoclax] (first compound max 1 µM, 7x7, partner max 1 µM)
Given back: 0.505

Asked: # iterate: Cc1c2c(nn1C)CSCc1cc(n(C)n1)CSc1cc(c3ccccc3c1)OCCCc1c(C(=O)O)n(C)c3c-2c(Cl)ccc13 [AZD5991] + Cn1cnc2c(F)c(Nc3ccc(Br)cc3Cl)c(C(=O)NOCCO)cc21 [Selumetinib] (first compound max 1 µM, 7x7, partner max 3 µM)
Given back: 0.671
